For each of the molecules below, state its MIC.
test system: P. multocida; test: In vitro antibacterial activity, broth microdilution MIC (CLSI M31-A2); type: cell-based, Pasteurella multocida; settings: Pasteurella multocida, P. multocida (bovine) strain 11272; read-out: MIC
A number alone suffices; assume µg/mL.

For "CC[C@H]1OC(=O)C[C@@H](O)[C@H](C)[C@@H](O[C@@H]2O[C@H](C)[C@@H](O[C@H]3C[C@@](C)(O)[C@@H](O)[C@H](C)O3)[C@H](N(C)C)[C@H]2O)[C@@H](CC=O)C[C@@H](C)C(=O)/C=C/C(C)=C/[C@@H]1CO[C@@H]1O[C@H](C)[C@@H](O)[C@@H](OC)[C@H]1OC" , write its MIC. 64

Recall and state the measured MIC for CO[C@@H]1C(OC2O[C@@H](C)C(O)C(N(C)C)C2O)[C@@H](CC=O)C[C@@H](C)[C@@H](OC(C)=O)/C=C/[C@@H](N(C)CCCc2ccnc3ccccc23)[C@@H](O)C[C@@H](C)OC(=O)C[C@H]1OC(C)=O (stereo partly shown) . 4

Report MIC for "CO[C@@H]1[C@@H](O[C@@H]2O[C@H](C)[C@@H](O[C@H]3C[C@@](C)(O)[C@@H](OC(=O)CC(C)C)[C@H](C)O3)[C@H](N(C)C)[C@H]2O)[C@@H](CC=O)C[C@@H](C)[C@@H](O)/C=C/C=C/C[C@@H](C)OC(=O)C[C@H]1OC(C)=O" 16

Give the value of MIC reported for the following: "CC[C@H]1OC(=O)C[C@@H](O)[C@H](C)[C@@H](O[C@@H]2O[C@H](C)[C@@H](O)[C@H](N(C)C)[C@H]2O)[C@@H](CCN2C[C@H](C)C[C@H](C)C2)C[C@@H](C)C(=O)/C=C/C(C)=C/[C@@H]1CO[C@@H]1O[C@H](C)[C@@H](O)[C@@H](OC)[C@H]1OC" 32
